Provenance of the data: patent US20210255193A1

- EXPERIMENTAL TARGET: POLR2L DNA-directed RNA polymerases I, II, and III subunit (Homo sapiens, UniProt P62875)
- Construct: isoTOP-ABPP experiments performed in cell lysates (in vitro); endogenous in cells; host or cells: soluble proteome of human cancer cell lines (MDA-MB-231, Ramos, Jurkat)
- EXPERIMENT: competitive isoTOP-ABPP
- Type: binding
- APPLIED CONDITIONS: 50 uM, 231 sol, in vitro
OBSERVED PROPERTY: isoTOP-ABPP reactivity ratio at lysine P62875_K67
Please reply with the value in numeric form only.

Worked set:
- SMILES: "O=C(CCc1coc2cc(F)ccc2c1=O)Oc1c(F)c(F)c(F)c(F)c1F"
  EXPERIMENTAL TARGET: "POLR2L DNA-directed RNA polymerases I, II, and III subunit (Homo sapiens, UniProt P62875)"
  QUANTITATIVE READOUT: 1.1
- SMILES: "O=C(CN1C(=O)c2ccccc2C1=O)Oc1c(F)c(F)c(F)c(F)c1F"
  EXPERIMENTAL TARGET: "POLR2L DNA-directed RNA polymerases I, II, and III subunit (Homo sapiens, UniProt P62875)"
  QUANTITATIVE READOUT: 1.0

Now look at this one.
Query string: Find isoTOP-ABPP reactivity ratio at lysine P62875_K67 (POLR2L DNA-directed RNA polymerases I, II, and III subunit (Homo sapiens, UniProt P62875)) for the entry `O=C(Oc1c(F)c(F)c(F)c(F)c1F)C1CCN(C(=O)OCc2ccccc2)CC1`
Result string: 0.9
